The values you see were collected from the RNAGym collection of RNA variant scans (doi:10.1073/pnas.2313332121).

B1: TPR t1 (parent)
chain: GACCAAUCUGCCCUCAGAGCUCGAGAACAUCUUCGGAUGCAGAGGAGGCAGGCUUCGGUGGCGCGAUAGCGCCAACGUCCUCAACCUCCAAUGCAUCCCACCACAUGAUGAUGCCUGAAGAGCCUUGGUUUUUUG

Variants of: B1
PROTOCOL DETAILS: polymerase ribozyme fitness, log enrichment relative to wild type (log ratio); higher = more active; in vitro selection for triplet polymerase activity
The reader will find reported polymerase ribozyme fitness (log ratio) values listed item by item below.
Reply briefly: the number, and no unit.

Some solved entries appear below for comparison.
C22G C86G G110U A121U; -3.31
C8G G10U A16C G77U U81A C85A; -3.62
A6U C12U C72U A83C G127U; -0.0511
A18U C40G A83U; -4.16
G10U U55C C123A; 0.286
U112G G128C; -2.91

Please list polymerase ribozyme fitness (log ratio) recorded for the variant C72A G93A C98U U125G
-1.8

Return value of polymerase ribozyme fitness (log ratio) for input A41G G69A C85A , no commentary.
-5.81
